Target: purified rabbit 20s proteasome (Oryctolagus cuniculus)
Construct: purchased Boston Biochem (Cambridge, Mass.)
Sequence (G1T4Q9 1-263): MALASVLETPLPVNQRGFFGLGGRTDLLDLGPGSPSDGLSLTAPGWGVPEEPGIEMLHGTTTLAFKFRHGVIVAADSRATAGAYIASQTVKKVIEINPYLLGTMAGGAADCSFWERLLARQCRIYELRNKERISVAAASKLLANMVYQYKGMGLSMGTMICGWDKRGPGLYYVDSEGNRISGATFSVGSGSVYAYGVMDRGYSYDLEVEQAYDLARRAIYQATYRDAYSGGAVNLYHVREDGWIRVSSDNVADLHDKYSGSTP
Experiment: Inhibition of chymotrypsin-like activity of purified 20S proteasome
Type: biochemical
Conditions: up to 25 μM, 30 min incubation; read-out: IC50
IC50 overview

Please report the recorded IC50 for O=C(O[C@@H]1Cc2c(O)cc(O)cc2O[C@@H]1c1cc(O)c(O)c(O)c1)c1cc(O)c(O)c(O)c1 [(−)-EGCG, (−)-epigallocatechin-3-gallate, reference compound] .
0.2 µM

Using the record for O=C(O[C@@H]1Cc2c(O)cc(O)cc2O[C@H]1c1cc(O)c(O)c(O)c1)c1cc(O)cc(O)c1 (relative stereo) [Compound 4] , report its IC50.
14 to 15 µM

I would be grateful if you could share the reported IC50 for O=C(O[C@@H]1Cc2c(O)cc(O)cc2O[C@H]1c1cc(O)c(O)c(O)c1)c1ccc(O)cc1 (relative stereo) [Compound 3] .
14 to 15 µM

Name the recorded IC50 for O=C(O[C@@H]1Cc2c(O)cc(O)cc2O[C@H]1c1cc(O)c(O)c(O)c1)c1cccc(O)c1 (relative stereo) [Compound 2] .
~9.9 µM
